biological target: Cathepsin D (CatD) (Homo sapiens (Human), UniProt P07339); experiment: CatD assay; format: biochemical; settings: read-out: IC50 IP (μM) CatD
Sequence (P07339 65-412, species assumed): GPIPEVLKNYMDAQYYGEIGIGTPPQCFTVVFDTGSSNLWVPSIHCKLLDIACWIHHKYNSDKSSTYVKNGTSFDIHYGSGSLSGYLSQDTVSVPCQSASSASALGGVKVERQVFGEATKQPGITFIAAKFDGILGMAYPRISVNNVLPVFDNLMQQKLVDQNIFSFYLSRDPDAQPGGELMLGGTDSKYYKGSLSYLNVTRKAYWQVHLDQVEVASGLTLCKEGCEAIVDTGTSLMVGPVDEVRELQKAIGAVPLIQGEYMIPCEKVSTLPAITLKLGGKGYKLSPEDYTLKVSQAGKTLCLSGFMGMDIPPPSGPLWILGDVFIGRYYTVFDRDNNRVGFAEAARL
Measured metric: log10(IC50) (log10 of the value in µM)
Remember, log10 of IC50, in µM.

The compound identified as CNC(=O)[C@]12C[C@H]1[C@@](C)(c1cc(/C=C(\F)c3cnc(Cl)cn3)ccc1F)N=C(N)S2 [Example 352] registered its log10(IC50) at 2.00

----------
target: BACE2 (Homo sapiens (Human)); assay: In vitro enzymatic BACE2 FRET assay; assay type: biochemical; settings: read-out: IC50 IP (μM) BACE2 Enzyme
Sequence (Q9Y5Z0 63-518): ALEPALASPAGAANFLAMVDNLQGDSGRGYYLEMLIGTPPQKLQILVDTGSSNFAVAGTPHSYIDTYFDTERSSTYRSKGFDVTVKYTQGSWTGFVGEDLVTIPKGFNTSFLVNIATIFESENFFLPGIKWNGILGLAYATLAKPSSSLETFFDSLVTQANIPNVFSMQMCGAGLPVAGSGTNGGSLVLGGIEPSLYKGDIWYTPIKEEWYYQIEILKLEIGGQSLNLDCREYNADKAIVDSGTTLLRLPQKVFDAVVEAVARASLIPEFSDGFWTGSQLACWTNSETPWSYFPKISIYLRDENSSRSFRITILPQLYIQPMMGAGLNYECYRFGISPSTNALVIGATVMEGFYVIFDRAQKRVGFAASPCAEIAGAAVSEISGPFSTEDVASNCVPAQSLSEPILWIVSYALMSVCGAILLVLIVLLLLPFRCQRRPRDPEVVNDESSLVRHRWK
Hi! Could you tag entries with IC50 below 0.1 µM as Satisfied, and those at or above as Not satisfied? Much appreciated.

Problem: Determine whether this molecule shows IC50 lower than 0.1 µM (ties excluded): "C[C@]1(c2cc(/C=C(\F)c3ccc(C#N)cn3)ccc2F)N=C(N)S[C@@]2(C(=O)N3CCCC(F)(F)C3)C[C@H]21"
Solution: Satisfied

----------
As shown below, each of these compounds has a reported IC50 value.
target: BACE1 (Homo sapiens (Human), UniProt P56817); assay: BACE1 cell assay; format: cell-based; settings: read-out: IC50 IP (μM) BACE1 Cell
Sequence (P56817 46-501, species assumed): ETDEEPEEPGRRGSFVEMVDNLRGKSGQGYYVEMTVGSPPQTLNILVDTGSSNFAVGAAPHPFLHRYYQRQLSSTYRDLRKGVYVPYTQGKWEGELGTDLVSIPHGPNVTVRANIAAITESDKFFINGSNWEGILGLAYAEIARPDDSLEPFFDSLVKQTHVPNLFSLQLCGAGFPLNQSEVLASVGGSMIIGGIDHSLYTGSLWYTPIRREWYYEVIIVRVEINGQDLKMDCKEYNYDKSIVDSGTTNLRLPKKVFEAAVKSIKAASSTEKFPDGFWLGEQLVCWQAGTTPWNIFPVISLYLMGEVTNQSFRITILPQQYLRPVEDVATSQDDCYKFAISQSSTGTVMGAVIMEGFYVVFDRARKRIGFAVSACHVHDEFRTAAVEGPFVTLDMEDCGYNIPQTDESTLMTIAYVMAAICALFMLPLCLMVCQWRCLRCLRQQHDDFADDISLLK
Give the number; µM is assumed, so skip it.

Please review the entries below; each comes with its answer.
[
  {
    "Compound": "C[C@H]1CN(C(=O)[C@]23C[C@H]2[C@@](C)(c2cc(/C=C(\\F)c4ccc(C#N)cn4)ccc2F)N=C(N)S3)[C@@H](C)CO1",
    "IC50 / µM": 0.0035
  },
  {
    "Compound": "C[C@]1(c2cc(/C=C(\\F)c3ccc(C#N)cn3)ccc2F)N=C(N)S[C@@]2(C(=O)N3CCCC3c3ccccc3)C[C@H]21 (some centres unmarked)",
    "IC50 / µM": 0.01
  },
  {
    "Compound": "C#CCOc1cnc(/C(F)=C/c2cnc(F)c([C@@]3(C)N=C(N)S[C@@]4(C(=O)N5CC[C@@H](F)C5)C[C@H]43)c2)cn1",
    "IC50 / µM": 0.0004
  },
  {
    "Compound": "C[C@]1(c2cc(/C=C(\\F)c3ccc(C#N)cn3)ccc2F)N=C(N)S[C@@]2(C(=O)N3CCNC(=O)CC3)C[C@H]21",
    "IC50 / µM": 0.00219
  },
  {
    "Compound": "C[C@]1(c2cc(/C=C(\\F)c3ccc(C#N)cn3)ccc2F)N=C(N)S[C@@]2(C(=O)N3CCO[C@H]4C[C@H]43)C[C@H]21",
    "IC50 / µM": 0.0015
  }
]

The compound identified as "C[C@]1(c2cc(/C=C(\F)c3cnc(C#C[Si](C)(C)C)cn3)ccc2F)N=C(N)S[C@@]2(C(=O)N3CCOCC3)C[C@H]21" registered its IC50 at 0.034

The compound identified as "COc1ccc(/C(F)=C/c2ccc(F)c([C@@]3(C)N=C(N)S[C@@]4(C(=O)N5CCCC5)C[C@H]43)c2)nc1" registered its IC50 at 0.0221

The compound identified as "C[C@]1(c2cc(/C=C(\F)c3ccc(C#C[Si](C)(C)C)cn3)ccc2F)N=C(N)S[C@@]2(C(=O)N3CCOCC3)C[C@H]21" registered its IC50 at 0.058
